Entry source: PubChem BioAssay (NCI)

Test system: IGROV1 ovarian
method summary: NCI-60 one-dose screen, 48 h (100 = growth as untreated, 0 = no growth, -100 = all killed)
condition: 10 µM unless noted
The panel holds about 83,000 compounds, 20% with a hit somewhere; the sample as a whole holds those more often. Calls of active or inactive are those of the source. Rule for the calls: active = growth percent below 10; inactive = the rest.
measured quantity: growth

compound | test result
COc1ccc(S(=O)(=O)n2cc(C(=O)C(=O)Nc3ccncc3)c3ccccc32)cc1F | 72% (inactive)
Cc1cc(C(C)(C)C)ccc1S | 109% (inactive)
Fc1ccc(CNCCNc2ncnc3c2cnn3-c2ccccc2)cc1 | 94.2% (inactive)

Lookup: Any idea what growth was measured for O=[N+]([O-])c1ccc(C(c2ccccc2)c2ccccc2)cc1 ?
Found: 84.4% (inactive)

Lookup: Any idea what growth was measured for Cc1csc(NC(c2ccccc2)c2c(C)nc3ccccn23)n1 (stereo unspecified) ?
Found: 108% (inactive)

Lookup: Any idea what growth was measured for FC(F)(F)c1ccccc1-c1cn2c(ccc3ccccc32)n1 ?
Found: 73.1% (inactive)

Lookup: Any idea what growth was measured for CCN1CCN(c2nc(NNC(=O)c3ccccc3)nc(N3CCN(C(c4ccccc4)c4ccccc4)CC3)n2)CC1 ?
Found: 53.1% (inactive)

Lookup: Any idea what growth was measured for Cc1[nH]c2ccc(F)cc2c1CCNC(=O)C1CCN(C(=O)c2ccccc2)CC1 ?
Found: 82.5% [25 µM] (inactive)

Lookup: Any idea what growth was measured for COc1cc2c(=O)n(C3CCCCCC3)c3c4cc[nH]c4ncc3c2cc1OC ?
Found: 57.3% (inactive)

Lookup: Any idea what growth was measured for C[n+]1c(/C=C/c2c(O)ccc3ccccc23)ccc2ccccc21 ?
Found: 45.2% (inactive)

Lookup: Any idea what growth was measured for CN(C)CC(C(=O)c1ccccc1)c1ccccc1 (stereo unspecified) ?
Found: 48.6% (inactive)
